- System: TK-10
- Measurement Notes: NCI tumour cell line growth inhibition, 48 h
The source made the active and inactive calls. No stated cut-off is given here; in the data, active = GI50 up to about 1.1 µM and inactive = higher.
Write down one outcome, taken from 1 for active, 0 for inactive

Take a look at these entries with their results.
Molecule	Answer Label
Cc1nc(Nc2ccccc2Cl)sc1C(=O)CC(=O)C(N)=O	0
COC(=O)/C=C1/OC(c2ccc(OC)cc2)=C(Cl)C1=O	0
COc1cccc2c1-c1nc(N)c3c(OC)cccc3c1C2=O	0
COc1ccc2c(=O)c(O)c(-c3ccc(OC)c(OC)c3)oc2c1	0

Dear colleague, could you share the recorded outcome for Oc1cc(N2CCCC2)ccc1/C=N/N1C(=S)N(c2ccccc2)C(=N\c2ccccc2)/C1=N/c1ccccc1 when you have a moment?
0

Queued: Cc1cn(CCCCCCOC(=O)NC(CCCNC(N)=O)C(=O)O)c(=O)[nH]c1=O (stereo not given)
0

Queued: c1ccc(C2=Nc3nc4ccccc4n3C(c3ccccc3)C2)cc1 (stereo not given)
0

Queued: Clc1cccc(Cl)c1C1SCc2nc3ncccc3n21 (stereo not given)
0

Queued: Cc1ccc(NC(=O)CC(=O)n2nc(-c3ccccc3)c(/N=N/c3ccccc3C(=O)O)c2-c2ccccc2)cc1
0

Queued: CCCCCCCCCCCCCCCC(=O)OCC1OC(n2ccc(N)nc2=O)C(O)C1O (stereo not given)
0

Queued: CN1CCc2c(sc3ncn(Nc4ccc(F)cc4)c(=N)c23)C1
0

Queued: NC(=S)N/N=C1\CCCCc2ccccc21
0

Queued: CCOC(=O)CCn1[nH]c(=O)c(Cl)c(Cl)c1=O
0

Queued: Oc1ccc2ccccc2c1C(c1ccc(Cl)cc1)c1c(O)ccc2ccccc12
0

Queued: O=C1C=Cc2c(I)sc(I)c21
0

* * *

- Test system: NCI-H23
- Measurement Notes: NCI tumour cell line growth inhibition, 48 h
Active and inactive are the calls of the source. No stated cut-off is given here; in the data, active = GI50 up to about 1.1 µM and inactive = higher.
Write down one outcome, taken from Y (active), N (inactive)

Take a look at these entries with their results.
Molecule	Answer Label
CCOC(=O)c1cc(C2(O)CCN(CC(C)CC)C2=O)c(-c2cc(C)no2)[nH]1 (stereo unspecified)	N
CO[C@](C(=O)OC[C@H]1[C@@H](COC(C)=O)[C@@H]2O[C@H]1c1cc3c(cc12)OCO3)(c1ccccc1)C(F)(F)F	N
COC1=CC(=O)c2c(c(COC(C)=O)cn2C)C1=O	Y
O=C1SC(c2ccccc2)(c2ccccc2)c2ccccc21	N
O=C(Nc1ccc(I)cc1C(=O)NCCO)c1cccs1	N

With those in mind, consider the next molecule.
Dear colleague, could you share the recorded outcome for CC[C@]1(Cc2ccc(OC)c(OC)c2)C2CC(C(=O)OC)ON2O[C@H](OCc2ccccc2)[C@@H]1OC(C)=O (stereo partly specified) when you have a moment?
N

* * *

- System: MDA-MB-435
- Measurement Notes: NCI tumour cell line growth inhibition, 48 h
Calls of active or inactive are those of the source. No stated cut-off is given here; in the data, active = GI50 up to about 1.1 µM and inactive = higher.
Measure Name: GI50

Check out these entries, answers already filled in.
Molecule	Result
CC(O)C1CC1(CO)CNc1cc(Cl)nc(N)n1 (stereo not drawn)	> 100 µM (inactive)
COc1cc(/C=N/NC(=O)c2ccc(NC(C)=O)cc2OC)ccc1O	> 100 µM (inactive)
Cc1nc2c(sc(=S)n2-c2ccccc2)c2nc3ncccc3n12	> 100 µM (inactive)
O=C1C=CC(=O)c2c1ccc1c3ccccc3n(-c3cccc([N+](=O)[O-])c3)c21	2.05 µM (inactive)
CSCCC(NC(=O)C(Cc1c[nH]c2ccccc12)NC(=O)CCNC(=O)OC(C)(C)C)C(=O)NC(CC(=O)O)C(=O)NC(Cc1ccccc1)C(N)=O (stereo not drawn)	> 50 µM (inactive)
COc1ccc(N2C(=O)C3ON(Cc4ccc(CC(N)=O)cc4)C(c4c5ccccc5c(C)c5ccccc45)C3C2=O)cc1 (stereo not drawn)	27.2 µM (inactive)
O=C1C=CC(=O)c2c1ccc1c3ccccc3n(-c3ccccc3)c21	14.1 µM (inactive)
Cc1c([N+](=O)[O-])ccc2c(NCCCN(C)C)ccnc12	17.5 µM (inactive)

Item under review: COC(=O)[C@@H]1CO[C@H](C(C)(C)C)N1C(=O)N1C=CC(=O)C[C@H]1C . Reported GI50?
> 100 µM (inactive)

Queued: Cc1nc2ccc(Cl)cc2c2c1CCN2c1ccc(F)cc1
7.05 µM (inactive)

Queued: O=C(O)c1nc2ccc(C(F)(F)F)cc2nc1Nc1ccc(F)cc1
17.6 µM (inactive)

Queued: CC/C=C\C=C/C(=O)N/C=C/CCC
> 100 µM (inactive)

Queued: Cc1ccc([N+](=O)[O-])cc1S(=O)(=O)Nc1ccc(C2=NN(S(=O)(=O)c3cc([N+](=O)[O-])ccc3C)C(c3ccccc3)C2)cc1 (stereo not drawn)
36.8 µM (inactive)

* * *

- System: A549
- Measurement Notes: NCI tumour cell line growth inhibition, 48 h
Activity calls are given as the source filed them. Rule as the data show it: active = GI50 up to about 1.1 µM and inactive = higher.
Measure Name: GI50

Compound	GI50
Oc1ccc2ccccc2c1C(c1ccc(Cl)cc1)c1c(O)ccc2ccccc12	2.95 µM (inactive)
O=C(CCBr)N1CCN(C(=O)CCBr)CC1 [PIPOBROMAN]	43.9 µM (inactive)
O=C(C/C(CCC(=O)N(Cc1ccccc1)Cc1ccccc1)=N/Nc1ccc([N+](=O)[O-])cc1[N+](=O)[O-])c1ccccc1	86.1 µM (inactive)

Field: next compound
Provide the documented GI50 with A549 as the system for N#Cc1cnsc1
> 100 µM (inactive)

* * *

- System: SR
- Measurement Notes: NCI tumour cell line growth inhibition, 48 h
Activity calls are given as the source filed them. Cut-off read from the data, not from the text of the source: active = GI50 up to about 1.1 µM and inactive = higher.
Write down one outcome, taken from active, inactive

Take a look at these entries with their results.
Molecule	Answer Label
CCCNC1=C2C[C@@H](C)C[C@@H](OC)[C@@H](OC(=O)CCCN)[C@H](C)/C=C(\C)[C@@H](OC(N)=O)[C@H](OC)/C=C\C=C(/C)C(=O)NC(=CC1=O)C2=O	inactive
O=c1oc2c/c(=C\c3ccccc3)c(=O)c3cccc1c3-2	inactive
COC(=O)C1CCC2(CC1)NC(=O)NC2=O (stereo not drawn)	inactive

Dear colleague, could you share the recorded outcome for CC(C)=CCC[C@](C)(O)[C@H]1CC[C@]2(C)[C@@H]1[C@H](O)C[C@@H]1[C@@]3(C)CC[C@H](O[C@@H]4O[C@H](CO)[C@@H](O)[C@H](O)[C@H]4O)C(C)(C)[C@@H]3CC[C@]12C [GINSENOSIDE RH2] when you have a moment?
inactive

Queued: CO[C@](C(=O)OC[C@H]1[C@@H](COC(C)=O)[C@@H]2O[C@H]1c1cc3c(cc12)OCO3)(c1ccccc1)C(F)(F)F
inactive

Queued: NC(=S)N/N=C1\CCCCc2ccccc21
inactive

Queued: CC(=O)OCC1OC(n2cnc3c(I)nc(I)nc32)C(OC(C)=O)C1OC(C)=O (stereo not drawn)
inactive

Queued: COC(=O)c1ccc2cc(O)ccc2c1
inactive

Queued: CC(C)[Si](CC1=CCCCC12C(=O)N(COCC[Si](C)(C)C)c1ccccc12)(C(C)C)C(C)C (stereo not drawn)
inactive

Queued: COc1cc(C2c3cc4c(cc3OC(N3CCOCC3)C2C)OCO4)cc(OC)c1OC(C)=O (stereo not drawn)
inactive

Queued: CC(C)=CCC/C(C)=C/CC/C(C)=C/CCN(C)CCO
inactive

Queued: O=C1/C(=C/c2cccc(Cl)c2)CCCc2ccccc21
inactive

Queued: N#CCCN(C(=O)Nc1ccc(NC(=O)N(CCC#N)c2ccccc2)cc1)c1ccccc1
inactive

Queued: N#CC1Sc2ccccc2-n2cccc21 (stereo not drawn)
inactive

Queued: O=c1c2ccccc2n2nnc3ccc(NCCNCCO)c1c32
active

Queued: CCC(C)(C)NC1=C(NC(C)=O)C(=O)c2ccccc2C1=O
inactive

Queued: OCC1CCCCN1Cc1nc2cc(Cl)ccc2[nH]1 (stereo not drawn)
inactive

Queued: O=c1cc(CC(O)(C(F)(F)Cl)C(F)(F)Cl)[nH]n1-c1ccccc1
inactive

Queued: COc1ccccc1NC(=O)CC(=O)NN
inactive

* * *

- Test system: SNB-19
- Measurement Notes: NCI tumour cell line growth inhibition, 48 h
Activity calls are given as the source filed them. No stated cut-off is given here; in the data, active = GI50 up to about 1.1 µM and inactive = higher.
Measure Name: GI50

Check out these entries, answers already filled in.
Compound	Target	GI50
Sc1nnc(COc2ccc(Cl)cc2)o1	SNB-19	> 100 µM (inactive)
O=C(Nc1cccc(NC(=O)c2cc(=O)c3ccccc3o2)n1)c1cc(=O)c2ccccc2o1	SNB-19	68.9 µM (inactive)
CC(NC(=O)N(C)C)NC(=O)N(C)C	SNB-19	> 10 µM (inactive)

Field: next compound
Item under review: COc1cc(S(=O)(=O)Nc2ccc(-c3csc(N4C(=O)C(Cl)C4c4ccccc4)n3)cc2)ccc1Cl (centres undefined) . Reported GI50?
> 100 µM (inactive)

* * *

- System: T47D
- Measurement Notes: NCI tumour cell line growth inhibition, 48 h
The source made the active and inactive calls. Rule as the data show it: active = GI50 up to about 1.1 µM and inactive = higher.
Write down one outcome, taken from active, inactive

Take a look at these entries with their results.
Compound	Answer Label
C[C@]12CC[C@H](O)CC1=CC[C@@H]1[C@@H]2CC[C@]2(C)C(=N/N)/C(=N\O)C[C@@H]12	inactive
O=Cc1c(-c2ccccc2)nc2ccccc2c1O	inactive
Cc1c([N+](=O)[O-])ccc2c(NCCCN(C)C)ccnc12	inactive
COc1cccc(C2c3cc4c(cc3OC(C)(N3CCCC3)C2C)OCO4)c1 (configuration not stated)	inactive
COC(=O)c1ccc2cc(O)ccc2c1	inactive

Dear colleague, could you share the recorded outcome for C=CCN1C(=O)C[C@H](Cc2ccccc2)NC(=O)C[C@H](Cc2ccccc2)N(CC=C)C(=O)C[C@H](Cc2ccccc2)NC(=O)C[C@@H]1Cc1ccccc1 when you have a moment?
inactive

Queued: Cc1nc2n(c1/C=C1/C(=O)Nc3ccccc31)CCS2
inactive

Queued: CCCNC1=C2C[C@@H](C)C[C@@H](OC)[C@@H](OC(=O)CCCN)[C@H](C)/C=C(\C)[C@@H](OC(N)=O)[C@H](OC)/C=C\C=C(/C)C(=O)NC(=CC1=O)C2=O
inactive

Hey, just so you know, these numbers are from ChEMBL document CHEMBL1201862.
